Test system: E. coli NCTC 10418
Assay: MIC against E. coli NCTC 10418
Assay type: cell-based
Details: Escherichia coli, NCTC10418; read-out: MIC against E. coli NCTC 10418
Counter-ions that a name gives are not always drawn.
measured property: MIC (µg/mL)

{"compound": "CC1(C)S[C@@H]2[C@H](NC(=O)[C@H](NC(=O)c3cn(-c4ccc(N)cc4)[nH]c3=O)c3ccc(O)cc3)C(=O)N2[C@H]1C(=O)O [Example 14, (sodium salt)]", "output unit": "µg/mL", "MIC": 2.5}

a. CCn1c(C)c(C(=O)N[C@@H](C(=O)N[C@@H]2C(=O)N3[C@@H]2SC(C)(C)[C@@H]3C(=O)O)c2ccccc2)c(=O)n1-c1ccc([N+](=O)[O-])cc1
b. CC1(C)S[C@@H]2[C@H](NC(=O)[C@H](NC(=O)c3cnn(-c4ccccc4)c3O)c3ccccc3)C(=O)N2[C@H]1C(=O)O [Example 4, (sodium salt)]
c. Cn1cc(C(=O)N[C@@H](C(=O)N[C@@H]2C(=O)N3[C@@H]2SC(C)(C)[C@@H]3C(=O)O)c2ccccc2)c(=O)n1Cc1ccccc1 [Example 9, (sodium salt)]
d. Cc1ccc(-n2cc(C(=O)N[C@@H](C(=O)N[C@@H]3C(=O)N4[C@@H]3SC(C)(C)[C@@H]4C(=O)O)c3ccccc3)c(=O)[nH]2)cc1 [Example 23, sodium salt]
INPUT: Arrange the 4 compounds by rising MIC, starting with the smallest. Return value: ordered labels per request.
OUTPUT: b, c, d, a

----------
Test system: E. coli NCTC 10418
Experiment: MIC against E. coli NCTC 10418
Format: cell-based
Details: Escherichia coli, NCTC10418; read-out: MIC against E. coli NCTC 10418
Where a name gives a salt, the structure may show the parent alone.
measured property: MIC (µg/mL)

I. CC1(C)S[C@@H]2[C@H](NC(=O)[C@H](NC(=O)c3cn(-c4ccccc4)[nH]c3=O)c3ccccc3)C(=O)N2[C@H]1C(=O)O [Example 3, sodium salt]
II. COc1ccc(-n2cc(C(=O)N[C@@H](C(=O)N[C@@H]3C(=O)N4[C@@H]3SC(C)(C)[C@@H]4C(=O)O)c3ccccc3)c(=O)[nH]2)cc1 [Example 20, sodium salt]
INPUT: Problem: Given the entries I and II , determine which has the lower reported MIC. Field: selected label. Fill in the label of the entry you choose.
OUTPUT: II

1. Cc1c(C(=O)N[C@@H](C(=O)N[C@@H]2C(=O)N3[C@@H]2SC(C)(C)[C@@H]3C(=O)O)c2ccc(O)cc2)c(=O)n(-c2ccccc2)n1C [Example 2, sodium salt]
2. CC(=O)OCC1=C(C(=O)O)N2C(=O)[C@@H](NC(=O)[C@H](NC(=O)c3cn(-c4ccc([N+](=O)[O-])cc4)[nH]c3=O)c3ccccc3)[C@H]2SC1 [Example 18, sodium salt]
INPUT: Of the two listed items, 1 and 2 , which carries the larger MIC figure? Let me know the label of the one you choose.
OUTPUT: 1
(1: 12.5 µg/mL, 2: 1 µg/mL)
